Entry source: the emibetuzumab library of Makowski et al. (2022)

B1: VH:VL chains; a variant is named by its letters at X, in order (parent)
chain 1: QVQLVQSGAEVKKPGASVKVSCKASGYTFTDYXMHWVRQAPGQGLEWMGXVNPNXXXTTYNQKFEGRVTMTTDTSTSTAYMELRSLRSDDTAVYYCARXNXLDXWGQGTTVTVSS
chain 2: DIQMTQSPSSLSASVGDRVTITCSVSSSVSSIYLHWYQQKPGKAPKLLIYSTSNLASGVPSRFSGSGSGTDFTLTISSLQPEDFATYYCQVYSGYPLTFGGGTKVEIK

variants of: B1; assay: yeast display scFab, FACS + sequencing; conditions: with MET
Some of the results follow. The hit rate among all sequences tested is not known here.
measurementLabel: antigen binding call

// worked examples, antigen binding call included
• YKARGAAY = binds
• VKGRGYGA = binds
• DKKKDVVF = no binding
• VRARGAAY = binds
• VETEGDVY = no binding
• DGGTSYSV = no binding

Return reported antigen binding call values for all items listed beneath this line.
1. VAGAGYGA
2. FEAESYGV
3. YRRGSSAA
4. YKKRGAWS
5. AARADDWD

**A:**
no binding
no binding
binds
binds
no binding
